Measurement description: folding enthalpy; higher = less favourable; fluorescence melt of hairpins on a sequencing array, two-state fit
Test parameters: sodium 0.088 M
So I've got a bunch of sequences here, and I need their folding enthalpy values.
Give bare numbers, in kcal/mol.

Below are worked cases with known answers.
>>> print(df.to_string())
                         record_sequence  unit_descriptor  assay_result
0  GTCTCCGAAAGGAGTGAC ((((((....)))..)))         kcal/mol         -11.2
1  GTGGTTGGAAACAGCCAC ((((.((....)).))))         kcal/mol         -44.1
2    GTCGTACGAAAGTAGAC (((.(((....))))))         kcal/mol         -32.4
3  GAAGGCGAAAGCCGCTTC ((((((....)))..)))         kcal/mol         -13.6
4  GTTGTCGAAAGACTGAAC ((((((....)))..)))         kcal/mol         -11.3
5  GTTAAGCCGAAAGGCAAC (((..(((....))))))         kcal/mol         -10.5
6              GCGAGGAGTCGC ((((....))))         kcal/mol         -13.4
7  GTCTGCACGAAAGTGGAC (((..(((....))))))         kcal/mol           -15
8  GCAAAGGGAAACCTTTGC (((((((....)))))))         kcal/mol         -45.1
9  GGAAAACCGAAAGGTTCC (((..(((....))))))         kcal/mol         -13.8

Dear colleague, could you please provide folding enthalpy for the sequences listed below?
1. GATCTGATGCAGATC ((((((...))))))
2. GTCTGAGAAATCAGAC ((((((....))))))

[out]
-34.5
-37.5

* * *

Measurement description: folding enthalpy; higher = less favourable; fluorescence melt of hairpins on a sequencing array, two-state fit
Test parameters: sodium 0.088 M
Classify by measured folding enthalpy: Satisfied if it is equal to or exceeds -40 kcal/mol, Not satisfied if it is smaller.

                         record_sequence    label_class
0        GATCTCTTCGAGATC ((((((...))))))      Satisfied
1  GAGGGCCGAAAGGCTCTC (((.(((....))).)))      Satisfied
2      GATCGGTGATCCGATC ((((((....))))))  Not satisfied

[in] Tell me whether folding enthalpy is at least -40 kcal/mol here: GCTCTGCGAAAGCAAGC (((.(((....))))))
[out] Satisfied

[in] In plain terms: is recorded folding enthalpy at least -40 kcal/mol for GGCTGCGAAAGCATTGCC ((((((....)))..))) ?
[out] Satisfied

[in] Could you please find out whether GATCGCTTCTGCGATC ((((((....)))))) has folding enthalpy that meets -40 kcal/mol or exceeds it?
[out] Not satisfied

* * *

Measurement description: folding enthalpy; higher = less favourable; fluorescence melt of hairpins on a sequencing array, two-state fit
Test parameters: sodium 0.088 M
Readout kind: folding enthalpy (kJ/mol)
Give bare numbers, in kJ/mol.

Some solved cases for reference:
>>> df
                         record_sequence      readout_kind  unit_descriptor  assay_result
0  GACTGACCGAAAGGTGTC (((..(((....))))))  folding enthalpy           kJ/mol         -70.5
1  GTTCAAGCGAAAGCTAAC (((..(((....))))))  folding enthalpy           kJ/mol         -47.7
2  GATTACGCGAAAGCGATC (((..(((....))))))  folding enthalpy           kJ/mol         -27.2

List reported folding enthalpy for each of these sequences:
1. GTTGCCGAAAGGCGAAAC ((((((....)))..)))
2. GATCATCTAATGATC ((((((...))))))
3. GATCTGGCTCCAGATC ((((((....))))))

[out]
1: -39; 2: -145; 3: -165
